// provenance: patent US4031226A

Test system: apomorphine-induced vomiting
Test summary: block of apomorphine-induced vomiting in dogs (antiemetic activity)
Format: in vivo, beagle dogs
Assay conditions: Canis lupus familiaris, sc, 1 h, read-out: ED50 (dose which protects 50% of the animals from emesis)
Measured endpoint: log10 ED50 (log10 of the value in mg/kg)
Hi team, quick reminder: these entries are log10 of ED50 (mg/kg).

Previously resolved entries follow.
Smiles str	Numeric readout
O=C(NCCN1CCC2(CC1)C(=O)NCN2c1ccc(F)cc1)c1ccc(F)cc1	-1.82
O=C(NCCN1CCC2(CC1)C(=O)NCN2c1ccccc1)c1ccccc1Br	-0.60
Cl.Nc1cc(F)ccc1C(=O)NCCN1CCC2(CC1)C(=O)NCN2c1ccccc1.O	-2.40
O=C(NCCN1CCC2(CC1)C(=O)NCN2c1ccccc1)c1ccc(F)cc1	-1.22

Task: Would you kindly share the measured log10 ED50 for O=C(NCCN1CCC(n2c(=O)[nH]c3cc(Cl)ccc32)CC1)c1ccc(F)cc1 ?
Result: -1.10

Task: Field request: log10 ED50 | item: O=C(NCCN1CCC2(CC1)C(=O)NCN2c1ccc(F)cc1)c1ccc(F)cc1[N+](=O)[O-]
Result: -1.52

Task: Which log10 ED50 is reported for this compound? O=C(NCCN1CCC2(CC1)C(=O)NCN2c1ccc(F)cc1)c1ccc(F)cc1Cl
Result: -2.70
